Cited source for all entries: ChEMBL document CHEMBL2176989

Property: Kp at 1 h; scope: individual molecules
assay: Ratio of drug uptake in brain to plasma in Wistar rat at 10 mg/kg, po after 1 hr; type: ADME, organism-based; set-up: dose 10 mg/kg, route oral; details: read-out: BPR

Example molecules with recorded Kp at 1 h:
# Mol, Kp at 1 h
data = [
    ("COc1ccc2ccn(S(=O)(=O)c3ccc(OC)c(NC4CCN(C)CC4)c3)c2c1.O=P(O)(O)O", 0.6),
    ("COc1ccc(S(=O)(=O)N2CCc3ccccc3C2)cc1NC1CCN(C)CC1", 0.24),
    ("COc1ccc(S(=O)(=O)n2cc(C)c3cc(Cl)cnc32)cc1NC1CCN(C)CC1", 0.9),
    ("COc1ccc(S(=O)(=O)N2CCCc3ccccc32)cc1NC1CCN(C)CC1", 0.02),
    ("COc1ccc(S(=O)(=O)n2cc(C)c3cc(Cl)ccc32)cc1NC1CCN(C)CC1", 3.8),
    ("COc1ccc(S(=O)(=O)N2CCOc3ccc(Cl)cc32)cc1NC1CCN(C)CC1", 0.6),
]

Now for the molecule whose Kp at 1 h we want.
# lookup: Kp at 1 h of `COc1ccc(S(=O)(=O)n2nc(C)c3cc(Cl)ccc32)cc1NC1CCN(C)CC1.O=C(O)C(O)C(O)C(=O)O`
0.5

* * *

assay: Half life in beagle dog at 1 mg/kg, iv; format: ADME, organism-based, Canis lupus familiaris; set-up: dose 1 mg/kg, route intravenous; settings: in vivo
Property Name: half-life
Provide the measurement as a number trailed by its unit.

# lookup: half-life of `COc1ccc(S(=O)(=O)n2cc(C)c3cc(Cl)cnc32)cc1NC1CCN(C)CC1`
2.3 h

* * *

assay: AUC (0 to 24 hrs) in beagle dog at 1 mg/kg, iv; assay type: ADME, organism-based, Canis lupus familiaris; design: time < 24 hr, dose 1 mg/kg, route intravenous; conditions: plasma
Property Name: AUC(0-t) at 24 h (ng·h/mL)
Hi! Could you send only the number? It should be in ng·h/mL, unit omitted.

# lookup: AUC(0-t) at 24 h of `COc1ccc(S(=O)(=O)n2cc(C)c3cc(Cl)cnc32)cc1NC1CCN(C)CC1`
1400

* * *

biological target: 5-hydroxytryptamine receptor 6 (Homo sapiens) (UniProt P50406); test: Antagonist activity at human recombinant 5HT6 receptor expressed in CHO cells assessed as inhibition of 5HT-induced luciferase activity after 4 hrs by reporter gene assay; type: functional, cell-based
Sequence (P50406 whole entry): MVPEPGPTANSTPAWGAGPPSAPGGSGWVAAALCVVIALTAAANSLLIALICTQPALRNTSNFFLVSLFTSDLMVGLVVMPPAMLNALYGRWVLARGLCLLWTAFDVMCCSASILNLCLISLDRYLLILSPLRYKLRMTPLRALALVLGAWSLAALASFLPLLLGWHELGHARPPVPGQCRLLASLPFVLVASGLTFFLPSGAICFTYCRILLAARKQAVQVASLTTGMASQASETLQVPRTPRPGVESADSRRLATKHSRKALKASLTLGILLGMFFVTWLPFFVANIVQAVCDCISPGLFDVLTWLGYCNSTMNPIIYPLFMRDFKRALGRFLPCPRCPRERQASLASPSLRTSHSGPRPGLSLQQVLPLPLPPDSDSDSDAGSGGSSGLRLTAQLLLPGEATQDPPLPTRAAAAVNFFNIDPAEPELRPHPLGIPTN
Property Name: Kb (nM)
Hi! Could you send only the number? It should be in nM, unit omitted.

Example molecules with recorded Kb:
# Mol, Kb / nM
data = [
    ("COc1ccc(S(=O)(=O)n2ccc3cc(Cl)cnc32)cc1NC1CCN(C)CC1", 0.15),
    ("CN1CCC(Nc2cccc(S(=O)(=O)n3ccc4ccc(Cl)cc43)c2)CC1", 2.39),
    ("COc1cnc2c(c1)c(C)cn2S(=O)(=O)c1ccc(OC)c(NC2CCN(C)CC2)c1", 2.3),
    ("COc1ccc(S(=O)(=O)n2cc(C)c3cc(F)ccc32)cc1NC1CCN(C)CC1", 0.52),
    ("COc1ccc2ccn(S(=O)(=O)c3cccc(NC4CCN(C)CC4)c3)c2c1", 1.2),
    ("Cc1cn(S(=O)(=O)c2ccc(F)c(NC3CCN(C)CC3)c2)c2ccccc12", 0.52),
    ("COc1ccc(S(=O)(=O)n2cc(C)c3nc(Cl)ccc32)cc1NC1CCN(C)CC1", 1.7),
    ("COc1ccc(S(=O)(=O)n2ccc3ccc(Cl)cc32)cc1NC1CCN(C)CC1", 0.14),
    ("COc1ccc(S(=O)(=O)N2CCOc3ccccc32)cc1NC1CCN(C)CC1", 0.2),
]

Now for the molecule whose Kb we want.
# lookup: Kb of `COc1ccc(S(=O)(=O)n2cc(C)c3cc(Cl)ncc32)cc1NC1CCN(C)CC1`
1.3
